The values you see were collected from patent US20250163016A1.

# measurement-description: Pharmacokinetics of oral administration of mice under different solvent conditions
# Assay type: in vivo
# conditions: male, Balb/c, mouse, plasma, 5 mg/kg, p.o. 5.0 mg/kg, solvent 5% DMSO + 10% Solutol + 85% Saline
reported-endpoint: half-life (h)

compound=CC(C)(O)Cn1ncc2cc(-c3c(C#N)cc(N4CCC(N)CC4)nc3-c3ccc(C#N)c(F)c3)c(F)cc21 numeric_result=5.52
compound="COc1ccc(-c2c(-c3ccc(C#N)c(F)c3)nc(N3CCC(N)CC3)n(C)c2=O)cc1F [CC-90011, reference compound]" numeric_result=2.44

###

# CLint scaled listing for each entry below
# measurement-description: Liver microsome stability, mice
# Format: in vitro ADME
# conditions: mouse; Mice liver microsomes
reported-endpoint: CLint scaled

molecule="COc1ccc(-c2c(-c3ccc(C#N)c(F)c3)nc(N3CCC(N)CC3)n(C)c2=O)cc1F [CC-90011, reference compound]" reported_endpoint="CLint scaled" result="42.2 mL/min/kg"
molecule=CC(C)(O)Cn1ncc2cc(-c3c(C#N)cc(N4CCC(N)CC4)nc3-c3ccc(C#N)c(F)c3)c(F)cc21 reported_endpoint="CLint scaled" result="< 38 mL/min/kg"
molecule=CC(C)(O)Cn1nc(F)c2cc(-c3c(C#N)cc(N4CCC(N)CC4)nc3-c3ccc(C#N)c(F)c3)c(F)cc21 reported_endpoint="CLint scaled" result="< 38 mL/min/kg"
